test: Stability in 50% human plasma at 100 uM measured for 24 hrs by LCMS analysis; assay type: ADME, cell-free
Endpoint: Stability

Take a look at these entries with their results.
{"Smiles record": "CCOC(=O)[C@H](C)N[P@@](=O)(CC/C=C(\\C)CO)Oc1ccccc1", "Stability": "Stable"}
{"Smiles record": "C/C(=C\\CCP(=O)(OCOC(=O)C(C)(C)C)OCOC(=O)C(C)(C)C)CO", "Stability": "Stable"}
{"Smiles record": "CCOC(=O)[C@H](C)N[P@](=O)(CC/C=C(\\C)CO)Oc1ccccc1", "Stability": "Stable"}
{"Smiles record": "CCOC(=O)[C@@H](C)N[P@](=O)(CC/C=C(\\C)CO)Oc1ccccc1", "Stability": "Stable"}

# ---- query compound ----
## Task Any idea what its Stability is? The compound is `CCOC(=O)[C@@H](C)N[P@@](=O)(CC/C=C(\C)CO)Oc1ccccc1`
## Result Stable
